# protocol_summary: yeast display, Sf9 membrane polyspecificity reagent, FACS + sequencing; frameworks hold sequencing errors
endpoint_label: polyreactivity (PSR sort gate)

INSERT INTO results (polymer_sequence, result) VALUES
  ('QVQLVESGGGLVQAGCSLRLSCAASGRIFYTYAMGWYRQAPAKEREFVAGIRWSGSSTYYADSVMGRFRISRDNAKYTVYFQMLSMKPEDTAVYYCAKRYVWGDKRYWQGYDYWGQGNQVTVSS', 'high polyreactivity'),
  ('QVQLVESGGGLVQAGGSLRLSCAASGFIFGTYTMGWYRQAPGKERELVAAISKSSGSTYYADSVKGRFTISRDNAKNTVYLQMNSLKPEDTAVYYCAAPTRSYGTPPYDYWGQGTQVTVSS', 'low polyreactivity'),
  ('QVQLVESGGGLVQAGGSLRLSCADSGRIFGTSAMGWYRQAPGKERELVATISYSSGRTYYADSVKGRFTISRDNAKNTVYLQMNSLKPEDTAVYYCARRRRSGSRQYYYWGQGTQVTVSS', 'high polyreactivity'),
  ('QVQLVESGGGLVHAGGSLRLSCAASGSNSNYYGMGWYRQAPGKERELVAAITWGGGRTNYADSVKGRFTISRDNAKNTVYLQMNSLKPEDTAVYYCAKVSVTHRYGAGGDYWGQGTQVTVSS', 'low polyreactivity'),
  ('QVQLVESGGGLVQAGGSLRLSCAASGLTFGSYAMGWYRQAPGKERELVAAISRSGGSTYYADSVMGRFTISRDNAKNTVYLQMNSLKPEDTAVYYCNAVNRYYAPTDRRVGYDYWGQGTQVTVSS', 'high polyreactivity');

Hello, the source for this data is the nanobody polyreactivity screen of Harvey et al. (2022), in case you need it.
